- Test system: MOLT-4 leukemia
- Assay remarks: NCI tumour cell line growth inhibition, 384-well format
Metric: TGI (nM)
Supply the numeric figure in nM, leaving out any unit text.

The following molecules have reported results that may help.
{"columns": ["Compound structure", "Metric", "Reported result"],
 "data": [
  ["CN1CCN(CCOc2cc(OC3CCOCC3)c3c(Nc4c(Cl)ccc5c4OCO5)ncnc3c2)CC1", "TGI", 21200],
  ["COc1ccc2c(c[n+](C)c3c4cc5c(cc4ccc23)OCO5)c1OC", "TGI", 300],
  ["C[C@@H]1COCCN1c1cc(C2([S@@](C)(=N)=O)CC2)nc(-c2ccnc3[nH]ccc23)n1", "TGI", 2680]
]}

Okay, next one:
Check the records and state TGI for O=C(Nc1cc(Oc2cc(F)c(NC(=O)C3(C(=O)Nc4ccc(F)cc4)CC3)cc2F)ccn1)C1CC1 1920

====

- Tested on: OVCAR-3 ovarian
- Assay remarks: NCI tumour cell line growth inhibition, 384-well format
Metric: TGI (µM)
Supply the numeric figure in µM, leaving out any unit text.

The following compounds have reported results that may help.
{"columns": ["Compound structure", "Metric", "Reported result"],
 "data": [
  ["CN1CCN(CCOc2cc(OC3CCOCC3)c3c(Nc4c(Cl)ccc5c4OCO5)ncnc3c2)CC1", "TGI", 16.8],
  ["COc1ccc2c(c[n+](C)c3c4cc5c(cc4ccc23)OCO5)c1OC", "TGI", 1.33]
]}

Okay, next one:
Check the records and state TGI for O=C(Nc1cc(Oc2cc(F)c(NC(=O)C3(C(=O)Nc4ccc(F)cc4)CC3)cc2F)ccn1)C1CC1 6

====

- Tested on: MCF7 breast
- Assay remarks: NCI tumour cell line growth inhibition, 384-well format
Metric: GI50

{"columns": ["Compound structure", "GI50"],
 "data": [
  ["COc1ccc2c(c[n+](C)c3c4cc5c(cc4ccc23)OCO5)c1OC", "1130 nM"]
]}

Check the records and state GI50 for C[C@@H]1COCCN1c1cc(C2([S@@](C)(=N)=O)CC2)nc(-c2ccnc3[nH]ccc23)n1 1270 nM

Check the records and state GI50 for O=C(Nc1cc(Oc2cc(F)c(NC(=O)C3(C(=O)Nc4ccc(F)cc4)CC3)cc2F)ccn1)C1CC1 376 nM

Check the records and state GI50 for CN1CCN(CCOc2cc(OC3CCOCC3)c3c(Nc4c(Cl)ccc5c4OCO5)ncnc3c2)CC1 9740 nM
